# measurement_target: Rhomboid protease GluP (Bacillus subtilis (strain 168))
# experimental_details: Competitive inhibition of Bacillus subtilis rhomboid YqgP at 100 uM preincubated for 30 mins followed by FP-Rh addition measured after 1 hr by gel-based ABPP method
Calls of active or inactive are those of the source. The rule behind the calls is not given here.
property_label: inhibition

In [3]: df
Out[3]:
                        smiles_input  observed_value
0        C#CCCCc1nc2cccc(C)c2c(=O)o1          Active
1       C#CCCCc1nc2cccc(Cl)c2c(=O)o1          Active
2      C#CCCOc1oc(=O)c2cc(N)ccc2c1Cl          Active
3        C#CCOc1nc2cccc(Cl)c2c(=O)o1          Active
4  O=c1oc(OCCc2ccccc2)nc2cccc(Cl)c12        inactive

Please examine the following record next.
*Q* Data request, read-out inhibition, for Cc1cccc2nc(OCCc3ccccc3)oc(=O)c12
*A* inactive

----------
# Tested on: Escherichia coli
# experimental_details: Competitive inhibition of Escherichia coli rhomboid GlpG assessed as residual enzyme activity at 100 uM preincubated for 30 mins followed by FP-Rh addition measured after 1 hr by gel-based ABPP method
property_label: Activity

*Q* Can you look up Activity on Escherichia coli for O=c1oc(OCc2ccccc2)nc2cc3ccccc3cc12 ?
*A* < 5%

*Q* Field: Activity (Escherichia coli). Entry: O=c1oc(OCc2ccccc2)nc2c(Cl)cccc12
*A* < 5%

*Q* Please provide the recorded Activity for O=c1oc(OCc2ccccc2)nc2ccccc12 , tested on Escherichia coli.
*A* < 5%

*Q* Checklist item: Activity tested on Escherichia coli, entry C#CCOc1nc2cccc(Cl)c2c(=O)o1 , value?
*A* < 5%

*Q* Identify the measured Activity of Cc1ccc2nc(OCc3ccccc3)oc(=O)c2c1 for Escherichia coli.
*A* < 5%

*Q* Lookup: Activity / Escherichia coli / Cc1cccc2nc(OCc3ccccc3)oc(=O)c12
*A* < 5%

*Q* API: value(readout=Activity, system=Escherichia coli) for record O=c1oc(OCc2ccccc2)nc2cccc(Cl)c12
*A* < 5%

*Q* # get_value(readout= Activity, system= Escherichia coli) for C#CCOc1nc2cccc(C)c2c(=O)o1
*A* < 5%

*Q* Recorded Activity for CCOc1nc2cccc(Cl)c2c(=O)o1 with Escherichia coli, please?
*A* < 5%

----------
# System: Escherichia coli
# experimental_details: Inhibition of rhomboid GlpG in Escherichia coli MC4100 outer membrane permeabilized mutant containing delta-lptD4213 preincubated for 15 mins followed by pPR61 (pD881-SR_MBP-LacYTM2-Trx) substrate addition measured after 4 hrs by fluorescence based Western blot
Calls of active or inactive are those of the source. The rule behind the calls is not given here.
property_label: inhibition

                       smiles_input  property_label  observed_value
0       C#CCOc1nc2cccc(Cl)c2c(=O)o1      inhibition        inactive
1         CCOc1nc2cccc(Cl)c2c(=O)o1      inhibition        inactive
2  O=c1oc(OCc2ccccc2)nc2cccc(Cl)c12      inhibition        inactive

----------
# measurement_target: Rhomboid protease GluP (Bacillus subtilis (strain 168), UniProt P54493)
# Sequence (P54493 whole entry): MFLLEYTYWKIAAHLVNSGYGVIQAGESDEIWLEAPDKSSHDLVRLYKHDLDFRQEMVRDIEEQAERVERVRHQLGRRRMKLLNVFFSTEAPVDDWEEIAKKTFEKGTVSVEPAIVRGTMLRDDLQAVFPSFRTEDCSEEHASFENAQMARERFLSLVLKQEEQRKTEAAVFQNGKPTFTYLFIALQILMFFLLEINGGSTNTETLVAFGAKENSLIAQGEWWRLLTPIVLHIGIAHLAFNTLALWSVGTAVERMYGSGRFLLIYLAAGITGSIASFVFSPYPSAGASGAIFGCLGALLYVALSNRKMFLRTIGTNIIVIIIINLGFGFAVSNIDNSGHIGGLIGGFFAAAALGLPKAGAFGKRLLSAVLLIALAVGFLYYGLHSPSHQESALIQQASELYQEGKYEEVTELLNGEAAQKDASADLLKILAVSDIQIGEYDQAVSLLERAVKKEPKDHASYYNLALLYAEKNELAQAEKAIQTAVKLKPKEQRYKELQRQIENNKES
# experimental_details: Competitive inhibition of Bacillus subtilis rhomboid YqgP preincubated for 30 mins followed by FP-Rh addition measured after 1 hr by gel-based ABPP method
Please provide measured IC50 for the entries that follow.
Note: unit µM is implicit; provide only the numeric part.

*Q* Endpoint output: IC50 of O=c1oc(OCc2ccccc2)nc2cc3ccccc3cc12 . Value?
*A* 7.3

*Q* // IC50 lookup, key: C#CCOc1nc2cccc(C)c2c(=O)o1
*A* 2.8

*Q* // IC50 lookup, key: C#CCOc1nc2cccc(Cl)c2c(=O)o1
*A* 6.2

*Q* Could you tell me which IC50 is on file for O=c1oc(OCc2ccccc2)nc2cccc(Cl)c12 ?
*A* 1.6

*Q* Give its IC50 value. Item: O=c1oc(OCc2ccccc2)nc2ccccc12
*A* 3.7

*Q* Name the recorded IC50 for Cc1ccc2nc(OCc3ccccc3)oc(=O)c2c1 .
*A* 4.6

*Q* Any idea what its IC50 is? The compound is CCOc1nc2cccc(Cl)c2c(=O)o1
*A* 7.1

*Q* Field request: IC50 | item: O=c1oc(OCc2ccccc2)nc2c(Cl)cccc12
*A* 0.47

*Q* What does the data say about its IC50? Entry: Cc1cccc2nc(OCc3ccccc3)oc(=O)c12
*A* 15
